Just for reference, ChEMBL document CHEMBL5518200 is where these values come from.

Test Target: Toll-like receptor 7 (Mus musculus, UniProt P58681)
Sequence (P58681 whole entry): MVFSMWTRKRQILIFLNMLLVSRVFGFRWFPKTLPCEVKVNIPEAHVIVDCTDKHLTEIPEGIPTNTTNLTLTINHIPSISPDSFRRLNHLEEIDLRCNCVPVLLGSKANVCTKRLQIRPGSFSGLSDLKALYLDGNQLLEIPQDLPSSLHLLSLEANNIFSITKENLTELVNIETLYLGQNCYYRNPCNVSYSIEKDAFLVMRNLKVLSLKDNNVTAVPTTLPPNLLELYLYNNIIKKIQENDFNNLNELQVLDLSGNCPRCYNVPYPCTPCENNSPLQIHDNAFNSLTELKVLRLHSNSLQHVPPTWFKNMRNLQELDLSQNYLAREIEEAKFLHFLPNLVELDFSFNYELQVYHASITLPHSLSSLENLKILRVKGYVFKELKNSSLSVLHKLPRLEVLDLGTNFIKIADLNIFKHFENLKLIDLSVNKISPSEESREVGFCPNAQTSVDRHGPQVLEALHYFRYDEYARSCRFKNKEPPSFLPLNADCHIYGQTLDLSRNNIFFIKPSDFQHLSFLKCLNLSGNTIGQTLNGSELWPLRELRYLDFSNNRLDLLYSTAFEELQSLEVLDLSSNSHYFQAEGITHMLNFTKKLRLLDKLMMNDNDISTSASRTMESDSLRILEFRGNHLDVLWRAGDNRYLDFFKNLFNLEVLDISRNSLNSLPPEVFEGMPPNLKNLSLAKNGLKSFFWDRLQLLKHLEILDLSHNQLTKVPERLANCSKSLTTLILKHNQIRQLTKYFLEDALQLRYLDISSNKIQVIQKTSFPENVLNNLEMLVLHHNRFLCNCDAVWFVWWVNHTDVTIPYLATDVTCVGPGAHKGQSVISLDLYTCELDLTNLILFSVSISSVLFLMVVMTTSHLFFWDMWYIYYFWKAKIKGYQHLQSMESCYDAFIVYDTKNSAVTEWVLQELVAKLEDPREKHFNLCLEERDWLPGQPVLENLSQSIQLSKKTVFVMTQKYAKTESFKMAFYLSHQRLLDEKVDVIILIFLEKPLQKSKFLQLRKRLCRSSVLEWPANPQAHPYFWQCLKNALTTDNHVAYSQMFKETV
Assay Notes: Binding affinity to recombinant mouse TLR7 assessed as dissociation constant by SPR analysis
Outcome Measure: pKd
Keep in mind that pKd stands for -log10 of concentration in molar terms.

INPUT: Returns the measured pKd for the input molecule. Input: CCCCc1nc2c(N)nc3ccccc3c2n1CC1CCOC1 (stereo unspecified)
OUTPUT: 7.33

* * *

Test Target: Toll-like receptor 7 (Homo sapiens)
Sequence (Q9NYK1 whole entry): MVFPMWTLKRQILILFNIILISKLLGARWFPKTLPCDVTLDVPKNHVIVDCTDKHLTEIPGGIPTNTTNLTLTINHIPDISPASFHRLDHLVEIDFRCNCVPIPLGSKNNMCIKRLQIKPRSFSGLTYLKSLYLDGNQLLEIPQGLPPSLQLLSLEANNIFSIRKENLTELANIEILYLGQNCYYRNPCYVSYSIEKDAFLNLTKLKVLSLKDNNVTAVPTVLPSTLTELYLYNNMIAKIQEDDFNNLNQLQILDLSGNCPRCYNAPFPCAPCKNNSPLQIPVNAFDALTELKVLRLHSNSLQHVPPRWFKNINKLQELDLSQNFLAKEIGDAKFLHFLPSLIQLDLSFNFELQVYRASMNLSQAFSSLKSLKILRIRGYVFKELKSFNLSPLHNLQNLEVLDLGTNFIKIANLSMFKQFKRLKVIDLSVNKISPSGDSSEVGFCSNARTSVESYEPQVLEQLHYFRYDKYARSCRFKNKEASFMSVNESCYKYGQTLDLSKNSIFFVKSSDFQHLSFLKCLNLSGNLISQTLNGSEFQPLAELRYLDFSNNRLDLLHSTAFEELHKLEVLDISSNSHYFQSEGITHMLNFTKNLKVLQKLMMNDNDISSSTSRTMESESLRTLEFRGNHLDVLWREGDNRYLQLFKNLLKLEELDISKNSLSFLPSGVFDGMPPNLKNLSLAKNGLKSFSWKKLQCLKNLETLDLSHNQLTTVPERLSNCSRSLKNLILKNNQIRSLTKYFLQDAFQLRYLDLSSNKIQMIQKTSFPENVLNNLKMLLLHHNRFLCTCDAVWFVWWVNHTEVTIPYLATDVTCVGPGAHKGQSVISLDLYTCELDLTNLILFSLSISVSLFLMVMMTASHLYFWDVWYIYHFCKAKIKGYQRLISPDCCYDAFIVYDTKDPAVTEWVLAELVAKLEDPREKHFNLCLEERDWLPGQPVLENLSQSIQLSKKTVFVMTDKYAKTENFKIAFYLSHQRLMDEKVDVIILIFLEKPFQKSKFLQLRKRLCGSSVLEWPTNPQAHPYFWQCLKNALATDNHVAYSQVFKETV
Assay Notes: Agonist activity at TLR7 in HEK-Blue hTLR7 cells expressing NF-kappaB/AP-1 inducible SEAP assessed as increase in SEAP activity incubated for 24 hrs by QUANTI-Blue assay
Outcome Measure: EC50 (µM)
Just the number please, in µM, no unit attached.

INPUT: Given the entry CCCCCc1nc2c(N)nc3ccccc3c2n1CC1CCOC1 (stereo not given) , report its measured EC50.
OUTPUT: 0.525

INPUT: Now the same for CCCCc1nc2c(N)nc3ccccc3c2n1Cc1ccc(C(=O)NC)cc1
OUTPUT: 0.226

INPUT: Same thing, different molecule: CCCc1nc2c(N)nc3ccccc3c2n1CC1CCOC1 (stereo not given)
OUTPUT: 3.28
